Values were extracted from PubChem BioAssay AID1845204.

- System: HSSY-II tumor spheroid viability
- Procedure Text: Anticancer human tumor HSSY-II cell line growth inhibition;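 also: spheroids exposed to compounds for seven days before reading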
- Reported Conditions: second compound 0.3 µM; first compound 0.316 µM; stronger effect = lower value; spheroids with HUVEC and MSC
Parameter Measured: viability, T/C (%)
Give your result in % as a bare value.

Compound | Unit | viability, T/C
CC1COCCN1c1cc(-c2ccnn2C)c2ccnc(-c3ccn[nH]3)c2n1 (stereo not drawn) + CC[C@@]1(O)C(=O)OCc2c1cc1n(c2=O)Cc2cc3c(CN(C)C)c(O)ccc3nc2-1 | % | 2.61
COc1ccc([C@@H](O)c2cc(-c3ncnc4cc(N5CCOCC5)ccc34)c(F)cc2Cl)nn1 + CC[C@@]1(O)C(=O)OCc2c1cc1n(c2=O)Cc2cc3c(CN(C)C)c(O)ccc3nc2-1 | % | 4.4

Now look at this entry.
Measured viability, T/C of COc1cc(C)[nH]c(=O)c1CN1CCc2c(Cl)cc(C(OC)C3COC3)c(Cl)c2C1=O (stereo not drawn) + CC[C@@]1(O)C(=O)OCc2c1cc1n(c2=O)Cc2cc3c(CN(C)C)c(O)ccc3nc2-1 : 6.42

====

Property: viability, T/C; scope: individual compounds
- Test system: HSSY-II tumor spheroid viability
- Procedure Text: Anticancer human tumor HSSY-II cell line growth inhibition;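 also: spheroids exposed to compounds for seven days before reading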
- Reported Conditions: second compound 31.6 µM; first compound 0.1 µM; stronger effect = lower value; spheroids with HUVEC and MSC
Give your result in % as a bare value.

Recorded viability, T/C, per entry:
Compound | System Tested | Readout Value
Cc1cc(C)c(CNC(=O)c2cc(-c3ccc(CN4CCOCC4)cc3)cc3c2cnn3C2CCCC2)c(=O)[nH]1 + Cn1nnc2c(C(N)=O)ncn2c1=O | HSSY-II tumor spheroid viability | 98
CC1COCCN1c1cc(-c2ccnn2C)c2ccnc(-c3ccn[nH]3)c2n1 (stereo unspecified) + Cn1nnc2c(C(N)=O)ncn2c1=O | HSSY-II tumor spheroid viability | 4.45
CC(C)n1c(=O)n(C)c2cnc3cc(F)c(-c4ccc(OCCCN5CCCCC5)nc4)cc3c21 + Cn1nnc2c(C(N)=O)ncn2c1=O | HSSY-II tumor spheroid viability | 96
COc1ccc([C@@H](O)c2cc(-c3ncnc4cc(N5CCOCC5)ccc34)c(F)cc2Cl)nn1 + Cn1nnc2c(C(N)=O)ncn2c1=O | HSSY-II tumor spheroid viability | 98.2
COc1cc(C)[nH]c(=O)c1CN1CCc2c(Cl)cc(C(OC)C3COC3)c(Cl)c2C1=O (stereo unspecified) + Cn1nnc2c(C(N)=O)ncn2c1=O | HSSY-II tumor spheroid viability | 96.3

Now look at this entry.
Measured viability, T/C of [2H]c1nc(C)nc([2H])c1-c1cc(NC[C@@H](C)c2cccc3c(C(=O)NC)ccnc23)ncn1 + Cn1nnc2c(C(N)=O)ncn2c1=O : 102

====

- System: HSSY-II tumor spheroid viability
- Procedure Text: Anticancer human tumor HSSY-II cell line growth inhibition;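 also: spheroids exposed to compounds for seven days before reading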;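 as to viability, T/C: percent of DMSO vehicle control viability so 100% = untreated level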
- Reported Conditions: second compound 3.16 µM; first compound 0.0949 µM; stronger effect = lower value; spheroids with HUVEC and MSC
Property: viability, T/C; scope: individual compounds
Give your result in % as a bare value.

Compound | viability, T/C (%)
O=C(c1cc(Cc2n[nH]c(=O)c3ccccc23)ccc1F)N1CCN(C(=O)C2CC2)CC1 + Cn1nnc2c(C(N)=O)ncn2c1=O | 94.9
CNCc1ccc(-c2cc(-c3nc(-c4ccc(S(=O)(=O)C(C)C)cc4)cnc3N)on2)cc1 + Cn1nnc2c(C(N)=O)ncn2c1=O | 10.3

Measured viability, T/C of Cc1sc2c(c1C)C(c1ccc(Cl)cc1)=NC(CC(=O)Nc1ccc(O)cc1)c1nnc(C)n1-2 (centres undefined) + Cn1nnc2c(C(N)=O)ncn2c1=O : 65.9

Measured viability, T/C of Cn1ncnc1[C@H]1c2n[nH]c(=O)c3cc(F)cc(c23)N[C@@H]1c1ccc(F)cc1 + Cn1nnc2c(C(N)=O)ncn2c1=O : 45.6

====

- System: HSSY-II tumor spheroid viability
- Procedure Text: Anticancer human tumor HSSY-II cell line growth inhibition;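 also: spheroids exposed to compounds for seven days before reading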;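 as to viability, T/C: percent of DMSO vehicle control viability so 100% = untreated level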
- Reported Conditions: second compound 30 pM; first compound 0.316 µM; stronger effect = lower value; spheroids with HUVEC and MSC
Parameter Measured: viability, T/C (%)
Give your result in % as a bare value.

Recorded viability, T/C, per entry:
Compound | Readout Value
Cc1cc(C)c(CNC(=O)c2cc(-c3ccc(CN4CCOCC4)cc3)cc3c2cnn3C2CCCC2)c(=O)[nH]1 + COc1cc2c(cc1O)CCNC21CSC2c3c(OC(C)=O)c(C)c4c(c3C(COC1=O)N1C(O)C3Cc5cc(C)c(OC)c(O)c5C(C21)N3C)OCO4 | 108
[2H]c1nc(C)nc([2H])c1-c1cc(NC[C@@H](C)c2cccc3c(C(=O)NC)ccnc23)ncn1 + COc1cc2c(cc1O)CCNC21CSC2c3c(OC(C)=O)c(C)c4c(c3C(COC1=O)N1C(O)C3Cc5cc(C)c(OC)c(O)c5C(C21)N3C)OCO4 | 95.2
COc1cc(C)[nH]c(=O)c1CN1CCc2c(Cl)cc(C(OC)C3COC3)c(Cl)c2C1=O (stereo unspecified) + COc1cc2c(cc1O)CCNC21CSC2c3c(OC(C)=O)c(C)c4c(c3C(COC1=O)N1C(O)C3Cc5cc(C)c(OC)c(O)c5C(C21)N3C)OCO4 | 108
COc1ccc([C@@H](O)c2cc(-c3ncnc4cc(N5CCOCC5)ccc34)c(F)cc2Cl)nn1 + COc1cc2c(cc1O)CCNC21CSC2c3c(OC(C)=O)c(C)c4c(c3C(COC1=O)N1C(O)C3Cc5cc(C)c(OC)c(O)c5C(C21)N3C)OCO4 | 93.3
CC1COCCN1c1cc(-c2ccnn2C)c2ccnc(-c3ccn[nH]3)c2n1 (stereo unspecified) + COc1cc2c(cc1O)CCNC21CSC2c3c(OC(C)=O)c(C)c4c(c3C(COC1=O)N1C(O)C3Cc5cc(C)c(OC)c(O)c5C(C21)N3C)OCO4 | 4.22

Now look at this entry.
# lookup: CC(C)n1c(=O)n(C)c2cnc3cc(F)c(-c4ccc(OCCCN5CCCCC5)nc4)cc3c21 + COc1cc2c(cc1O)CCNC21CSC2c3c(OC(C)=O)c(C)c4c(c3C(COC1=O)N1C(O)C3Cc5cc(C)c(OC)c(O)c5C(C21)N3C)OCO4 on HSSY-II tumor spheroid viability, viability, T/C = 109

====

- Test system: HSSY-II tumor spheroid viability
- Procedure Text: Anticancer human tumor HSSY-II cell line growth inhibition;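 also: spheroids exposed to compounds for seven days before reading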;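 as to viability, T/C: percent of DMSO vehicle control viability so 100% = untreated level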
- Reported Conditions: second compound 0.03 µM; first compound 0.0949 µM; stronger effect = lower value; spheroids with HUVEC and MSC
Parameter Measured: viability, T/C (%)
Give your result in % as a bare value.

Recorded viability, T/C, per entry:
Compound | viability, T/C (%)
CNCc1ccc(-c2cc(-c3nc(-c4ccc(S(=O)(=O)C(C)C)cc4)cnc3N)on2)cc1 + CC[C@@]1(O)C(=O)OCc2c1cc1n(c2=O)Cc2cc3c(CN(C)C)c(O)ccc3nc2-1 | 3.3
O=C(c1cc(Cc2n[nH]c(=O)c3ccccc23)ccc1F)N1CCN(C(=O)C2CC2)CC1 + CC[C@@]1(O)C(=O)OCc2c1cc1n(c2=O)Cc2cc3c(CN(C)C)c(O)ccc3nc2-1 | 5.6
Cn1ncnc1[C@H]1c2n[nH]c(=O)c3cc(F)cc(c23)N[C@@H]1c1ccc(F)cc1 + CC[C@@]1(O)C(=O)OCc2c1cc1n(c2=O)Cc2cc3c(CN(C)C)c(O)ccc3nc2-1 | 5.25

Now look at this entry.
Measured viability, T/C of Cc1sc2c(c1C)C(c1ccc(Cl)cc1)=NC(CC(=O)Nc1ccc(O)cc1)c1nnc(C)n1-2 (centres undefined) + CC[C@@]1(O)C(=O)OCc2c1cc1n(c2=O)Cc2cc3c(CN(C)C)c(O)ccc3nc2-1 : 6.41

====

- System: HSSY-II tumor spheroid viability
- Procedure Text: Anticancer human tumor HSSY-II cell line growth inhibition;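 also: spheroids exposed to compounds for seven days before reading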
- Reported Conditions: curve of first compound; second compound 0.0003 µM; spheroids with HUVEC and MSC
Parameter Measured: IC50

Compound | System Tested | IC50
Cn1ncnc1[C@H]1c2n[nH]c(=O)c3cc(F)cc(c23)N[C@@H]1c1ccc(F)cc1 + COc1cc2c(cc1O)CCNC21CSC2c3c(OC(C)=O)c(C)c4c(c3C(COC1=O)N1C(O)C3Cc5cc(C)c(OC)c(O)c5C(C21)N3C)OCO4 | HSSY-II tumor spheroid viability | < 9.49 nM

Measured IC50 of O=C(c1cc(Cc2n[nH]c(=O)c3ccccc23)ccc1F)N1CCN(C(=O)C2CC2)CC1 + COc1cc2c(cc1O)CCNC21CSC2c3c(OC(C)=O)c(C)c4c(c3C(COC1=O)N1C(O)C3Cc5cc(C)c(OC)c(O)c5C(C21)N3C)OCO4 : < 94.9 nM

====

Property: viability, T/C; scope: individual compounds
- Test system: HSSY-II tumor spheroid viability
- Procedure Text: Anticancer human tumor HSSY-II cell line growth inhibition;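 also: spheroids exposed to compounds for seven days before reading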;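 as to viability, T/C: percent of DMSO vehicle control viability so 100% = untreated level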
- Reported Conditions: second compound 0.03 µM; first compound 0.0316 µM; stronger effect = lower value; spheroids with HUVEC and MSC

Compound | Parameter Measured | Readout Value
CC1COCCN1c1cc(-c2ccnn2C)c2ccnc(-c3ccn[nH]3)c2n1 (stereo unspecified) + CC[C@@]1(O)C(=O)OCc2c1cc1n(c2=O)Cc2cc3c(CN(C)C)c(O)ccc3nc2-1 | viability, T/C | 3.87%
[2H]c1nc(C)nc([2H])c1-c1cc(NC[C@@H](C)c2cccc3c(C(=O)NC)ccnc23)ncn1 + CC[C@@]1(O)C(=O)OCc2c1cc1n(c2=O)Cc2cc3c(CN(C)C)c(O)ccc3nc2-1 | viability, T/C | 14.2%
CC(C)n1c(=O)n(C)c2cnc3cc(F)c(-c4ccc(OCCCN5CCCCC5)nc4)cc3c21 + CC[C@@]1(O)C(=O)OCc2c1cc1n(c2=O)Cc2cc3c(CN(C)C)c(O)ccc3nc2-1 | viability, T/C | 10.1%
Cc1cc(C)c(CNC(=O)c2cc(-c3ccc(CN4CCOCC4)cc3)cc3c2cnn3C2CCCC2)c(=O)[nH]1 + CC[C@@]1(O)C(=O)OCc2c1cc1n(c2=O)Cc2cc3c(CN(C)C)c(O)ccc3nc2-1 | viability, T/C | 6.06%
COc1ccc([C@@H](O)c2cc(-c3ncnc4cc(N5CCOCC5)ccc34)c(F)cc2Cl)nn1 + CC[C@@]1(O)C(=O)OCc2c1cc1n(c2=O)Cc2cc3c(CN(C)C)c(O)ccc3nc2-1 | viability, T/C | 10.3%

Now look at this entry.
Measured viability, T/C of COc1cc(C)[nH]c(=O)c1CN1CCc2c(Cl)cc(C(OC)C3COC3)c(Cl)c2C1=O (stereo unspecified) + CC[C@@]1(O)C(=O)OCc2c1cc1n(c2=O)Cc2cc3c(CN(C)C)c(O)ccc3nc2-1 : 13.6%
